- System: M14 melanoma
- experiment_summary: NCI-60 one-dose screen, 48 h
- measurement_conditions: 10 µM unless noted
The panel holds about 83,000 compounds, 20% with a hit somewhere; the sample as a whole holds those more often. The source made the active and inactive calls. How the source made its calls: active means growth percent below 10; inactive means the rest.
Form entry, call: pick from yes (1) (active), no (0) (inactive)

Req: Which outcome was assigned to COc1cc(/C=C/C(=O)c2ccc(NC(=O)CSc3nnc(-c4ccc(Cl)cc4)n3-c3ccccc3)cc2)cc(OC)c1OC in this test?
Resp: no (0)

Req: Which outcome was assigned to C#CC[C@@H]1C[C@]2(C)[C@H]3CC[C@@H]4[C@H]5C(C(=C)C)CC[C@]5(C(=O)NCCN(CCN)CCN)CC[C@@]4(C)[C@]3(C)CC[C@H]2C(C)(C)[C@H]1OC(C)=O (some centres undefined) in this test?
Resp: no (0)

Req: Which outcome was assigned to COC(=O)C(C)NC1=C(Cl)C(=O)C(NC(C)C(=O)OC)=C(Cl)C1=O (centres undefined) in this test?
Resp: no (0)

Req: Which outcome was assigned to CCN(CC)c1ccc(C(=N)c2ccc(N(C)C)cc2)cc1 in this test?
Resp: yes (1)

----------
Kindly supply the reported growth values for the records listed here.
- Tested on: OVCAR-8 ovarian
- experiment_summary: NCI-60 one-dose screen, 48 h (100 = growth as untreated, 0 = no growth, -100 = all killed)
- measurement_conditions: 10 µM unless noted
Compounds without any hit were thinned out: in the full panel of roughly 83,000, 20% have a hit.
Express it in %; write the number only.

Req: Suppose we examine the compound C/C(=N\OC(=O)Nc1cccc(Cl)c1)c1ccccc1 ; what growth value has been reported?
Resp: 104

Req: Suppose we examine the compound Nc1nonc1-c1nc2ccccc2n1Cc1ccc(F)cc1 ; what growth value has been reported?
Resp: 76.7

Req: Suppose we examine the compound COc1ccc(C2C3=C(COC3=O)N(CCO)c3cc(OC)c(OC)cc32)cc1 (stereo unspecified) ; what growth value has been reported?
Resp: 108

Req: Suppose we examine the compound CCN(CC)CCCC(C)Nc1cnc(C(=O)Nc2ccc(Cl)c3cccnc23)cn1 (stereo unspecified) ; what growth value has been reported?
Resp: 27.3

Req: Suppose we examine the compound O=C(c1ccccc1)N(CCCCl)C(=O)N(CCCCl)C(=O)c1ccccc1 ; what growth value has been reported?
Resp: 97.2

Req: Suppose we examine the compound O=C(Nc1cccc(Cl)c1)Nc1cc(C(F)(F)F)ccc1Cl ; what growth value has been reported?
Resp: 15.2

Req: Suppose we examine the compound OC(c1cc(-c2ccc(C(F)(F)F)cc2)nc(-c2ccc(C(F)(F)F)cc2)c1)C1CCCCN1 (stereo unspecified) ; what growth value has been reported?
Resp: -64.5

Req: Suppose we examine the compound CCCCCCCCCCC(C(O)c1ccccc1)N1CCCCC1 (stereo unspecified) ; what growth value has been reported?
Resp: 62.8

Req: Suppose we examine the compound CCOC(CN1CCN(CC(C)C(=O)c2ccccc2)CC1)c1ccccc1 (stereo unspecified) ; what growth value has been reported?
Resp: 104

Req: Suppose we examine the compound N=c1n(Cc2ccccc2)c(N)cc(=O)n1Cc1ccccc1 ; what growth value has been reported?
Resp: 20

Req: Suppose we examine the compound Cc1cc(C)c(C#N)c(SCC(=O)c2sc3c(C#N)c(C)cc(C)[n+]3c2[O-])n1 ; what growth value has been reported?
Resp: 20.4
